- System Under Test: T1, HLA-G dimer (signal peptide-b2m-HLA-G-6xHis antigen of Example 1, dimer fraction) (human)
- T1 construct: also called HLA-G multimers
- Method Notes: CD8a block ELISA: dimeric antigen coated, antibody 0.391 nM, competitor CD8a-His 100 nM, anti-CD8a-HRP detection
Recorded Metric: CD8a Block EIA (%)
Response body: numeric value in %, unit text excluded.

// known answers, use as guide
[[record]]
binder = "Anti-HLA-G antibody 1 (antibody, V domains shown) VH: EVQLLESGGGLVQPGGSLRLSCAASGFTFSDYAMSWVRQAPGKGLEWVSVISHDGDRVYYADSVKGRFTISRDNSKNTLYLQMNSLRAEDTAVYYCAKGPRRIANAIFDYWGQGTLVTVSS VL: QLVLTQPPSVSGAPGQKVTISCSGSSSNIGHSYVSWYQQLPGTAPKLLIYGDNNRPSGVPDRFSGSKSGTSASLAITGLQAEDEADYYCQSYDSSLSGYVFGTGTKVTVL"
unit_spec = "%"
observed_result = 39.5

[[record]]
binder = "Anti-HLA-G antibody 2 (antibody, IgG1, V domains shown) VH: EVQLLESGGGLVQPGGSLRLSCAASGFTFSDYAMSWVRQAPGKGLEWVSVISHDGGSIYYADSVKGRFTISRDNSKNTLYLQMNSLRAEDTAVYYCAKGPRRIANAIFDYWGQGTLVTVSS VL: QFVLTQPPSVSAAPGQKVTISCSGSNSNIGNSYVSWYQQVPGAAPRLLIYGSTNRPSGVPDRFSGSKSGTSASLAITGLQAEDEADYYCQSYDSSLSGYVFGTGTKVTVL"
unit_spec = "%"
observed_result = 39

[[record]]
binder = "Anti-HLA-G antibody 4 (antibody, IgG1, V domains shown) VH: EVQLLESGGGLVQPGGSLRLSCAASGFTFSDYSMSWVRQAPGKGLEWVSAISPDSGSKYYADSVKGRFTISRDNSKNTLYLQMNSLRAEDTAVYYCAKGPRHLTNNIFDYWGQGTLVTVSS VL: QSVLTQPPSASGTPGQRVTISCTGSSSNIGSNYVSWYQQLPGTAPKLLIYADSNRPSGVPDRFSGSKSGTSASLAISGLRSEDEADYYCASWDYSLSGYVFGGGTKLTVL"
unit_spec = "%"
observed_result = 32.1


*Q* Need CD8a Block EIA (%) of Anti-HLA-G antibody 3 (antibody, IgG1, V domains shown) VH: EVQLLESGGGLVQPGGSLRLSCAASGFTFSDYSMSWVRQAPGKGLEWVSAISPDRSLEYYADSVKGRFTISRDNSKNTLYLQMNSLRAEDTAVYYCAKGPRHLTNNIFDYWGQGTLVTVSS VL: QFVLTQPPSVSAAPGQKVTISCSGSSSNIGHSYVSWYQQLPGTAPKLLIYGNIHRPSGVPDRFSGSTSGTSASLAITGLQADDEADYYCGVWDSSLSAVVFGGGTKLTVL , thanks.
*A* 37.7
